# assay_remarks: soluble on expression in E. coli; label from the status in PepcDB or PDB records

- sequence: "MAHHHHHHMSAHEEEIDMILSMFSDECERYEGTSDSIIVHLPFHFELQVTLPPHGYPDASYPKLYLLSSPNAQLASAFSQAVYRRMRDEISLGIPMLALLIPLAQSVAEELKDLKERAEKARQDEAVERMSELQRKEEHRRETGIAIWSGQAIVDRRSRFVAHMARVHSMDEVREVVGHLRSVKSIACAAHPTIYAYRFTDANGVLQKDSDDDGESGASIKMMFLLDHLQIDGYVVVVTRWWGGILLGPDRFKHIMEVTKNLLLTIPEREKEMAASAKRKSLR"
  soluble on expression in E. coli: "soluble"
- sequence: "ASLLARYPPEKLFQAERNFNAAQDLDVSLLEGDLVGVIKKKDPMGSQNRWLIDNGVTKGFVYSSFLKPYNPRRSHSDAS"
  soluble on expression in E. coli: "soluble"

---

# assay_remarks: soluble on expression in E. coli; label from the status in PepcDB or PDB records
metric: soluble on expression in E. coli

Record excerpt, results attached:
- sequence: "GHGHMHGRLKVKTSEEQAEAKRLEREQKLKLYQSATQAVFQKRQAGELDESVLELTSQILGANPDFATLWNCRREVLQHLETEKSPEESAALVKAELGFLESCLRVNPKSYGTWHHRCWLLSRLPEPNWARELELCARFLEADERNFHCWDYRRFVAAQAAVAPAEELAFTDSLITRNFSNYSSWHYRSCLLPQLHPQPDSGPQGRLPENVLLKELELVQNAFFTDPNDQSAWFYHRWLLGAGSGRCELSVEKSTVLQSELESCKELQELEPENKWCLLTIILLMRALDPLLYEKETLQYFSTLKAVDPMRAAYLDDLRSKFLLENSVLKMEYA"
  soluble on expression in E. coli: "soluble"
- sequence: "MGSDKIHHHHHHMRQVLQKDKRDVQLSKALSYLLRHTAVKEKLTIDSNGYTPLKELLSHNRLKTHKCTVDDIHRIVKENDKQRFHIKTLGADEEWICATQGHSIKSIQPSDEVLVPITEASQLPQELIHGTNLQSVIKIIESGAISPMSRNHVHLSPGMLHAKGVISGMRSSSNVYIFIDCHSPLFFQTLKMFRSLNNVYLSSSIPVELIQKVVVKGNLKDEEKLDTLRRILHERNIPLEKI"
  soluble on expression in E. coli: "not soluble"
- sequence: "MKTRITELLKIDYPIFQGGMAWVADGDLAGAVSKAGGLGIIGGGNAPKEVVKANIDKIKSLTDKPFGVNIMLLSPFVEDIVDLVIEEGVKVVTTGAGNPSKYMERFHEAGIIVIPVVPSVALAKRMEKIGADAVIAEGMEAGGHIGKLTTMTLVRQVATAISIPVIAAGGIADGEGAAAGFMLGAEAVQVGTRFVVAKESNAHPNYKEKILKARDIDTTISAQHFGHAVRAIKNQLTRDFELAEKDAFKQEDPDLEIFEQMGAGALAKAVVHGDVDGGSVMAGQIAGLVSKEETAEEILKDLYYGAAKKIQEEASRWTGVVRNDLEHHHHHH"
  soluble on expression in E. coli: "soluble"
- sequence: "MKKLATLTALAGALTMAVATAAQAESKSSSTDNTATPCVGDKCVKTKAAEGKCGEGKCGADKAKSAEGKCGEGKCGADKAKSAEGKCGEGKCGSK"
  soluble on expression in E. coli: "not soluble"
- sequence: "MKKHTLALCLAAILAPAAHAAEIKVEDLTWKAITFGQSTDMNFGSTILPEKVGVNQVTVNGEAVAAGKLASTFTIESRGGKLANSHEGLTFYYTELPTDVNFTLSADVVLEQLGPETGATPNRQEGAGLMVRDILGAERLVPQPEGHEEFPSASNMVMNLMRSHTRANDGMTNINASFREGVYQPWGTPGNRLSRVDYVEGVPYGTAETYRMTLTRTNDGFKVSYRNGEKFVEQAVKGANANIVEMQNSDSQYVGFFASRNAKMTVSNVDLQLAAADTVDAPKYAAKQGELVFQIASSPRSATKEYPVQARANYSGEFEVLHNDKVVAKQTVTAGELFSQWLTLDSGANQMEVRFTAIDGPNKETQAHRYSVDVVSLPDPMTL"
  soluble on expression in E. coli: "not soluble"
- sequence: "MSLAQTQLSYKNKTYQISYEILGDLSLPQILILHGWGADKKLMKQSFCPFLKDFCQIYMDLAGFGNSSVEEILNTQDYANITELFLKQKKLNVCFFMGHSFGGKVSTLLAKEKDTLILLSSAGILAKKSLKVRFKIRIFKILKLFGLGKFYRYFASKDGANLSPIMYETFKKVVDEDFSEIFAKQKAKSLIFWGKSDEATPLYCGEKMHQFLKNSTFYPLEGDHFFFLKHSAFIAQKIKEEGHHHHHH"
  soluble on expression in E. coli: "soluble"
- sequence: "MEDDHSKEMDRLRSQAAKVQSEKETFDRKRRETLEKHKKELDELEKKNKKEEDDLREQNMNLWNKNLDQQIALGNELNNKYTEISNQNSRLQIKIGQEEDIRVFKIKLLDVSKVWTDVKVNYQDYLRNTLDEHSNSNKSDVLKEIDTLIYNKEKLNEVLITAKKLLGKCQKFTTSDSFKVINDSLTELMRFKFEDDILIELKTIIKKNGSAEQSFLTKMDETIDKYNEMVNELPGLQLKSVEPIHQAAIQ"
  soluble on expression in E. coli: "soluble"
- sequence: "MAHHHHHHMTALITKQRYNWMGYDGVESAVCDTALLRSDGGPANNYNYMHRQQVIMEVKERLYRIKRDLGLIPEEELRAEERAIQRRRMEKKRREEEERIRKEAEEAARAEEMERRHLELEEAEERASAEEVATQASAEHKHYMNDSDEDSDEENGIDDEQSASLVAMLRTQEEIDSAIAGFTKGTRMLLASSGNGYVSYLDGSVHFTIAKVESHNASNREKVMQALAGTNVAMPTAEEYSLEEVRQAMHDRDTARKKLDALRALQDPTYTARIRSAEKDTYGTPVQQLMEEDGDMSALVANCEDAKRFAESVRKAYNSRAAASAHALACALCTPPFTAEQESTSEAQAPAGKMANAEDGVSQPTGANSPSSSTSAQ"
  soluble on expression in E. coli: "not soluble"
- sequence: "MKFYTILSILFISFMLSACAVLQKSSPLQENKDFYILDTHTQKKISFEDMILELLKADVILLGEKHDEVKHKISQVMIFNALEGNLSSQNINFDVALEMLASTEQNHLDKAFKNKKTIKANELTNALNWDKVWKWKDYEQFVNVVFYSKSKILGANLSRSEITSIYNGAQPLKGYVSTTNEVKKQLFDIISLSHKLNPEENKELLDKLVEIQQFKDRRMADVLVHHVNKVLLLAGSYHTSKKIGIPLHIQDFKSSKKIVVVNLSYGEIDLKDSDYVLIYKGEE"
  soluble on expression in E. coli: "not soluble"

Now turn to the next sequence.
Ask: soluble on expression in E. coli for MAHHHHHHMIERTDVVTGTETQEGSTVPQEARQFLQIIATMQSESEERARIIGELRYRKLLVEEERDKNFMEREAVVAKLADARAQLLQLDVEHRELQKRQRSSESEILENSRQSQRCRTLLSTCRGDLTVHPMVPNSASELAAEATAAGTSSAAHNAYTEEAKWLKHLFITYGQLYNGTDFLQELRVSMKNLYVEVSKETHNTVQRNLSDWEATCLQSLPHLTADERTLLHFQLMLHPFV ?
Reply: not soluble
